Readings of inhibition for the listed compounds
Test Method Notes: Leishmania major promastigote growth inhibition, primary screen (AID 1063);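 further: promastigotes grown with compound for 44 hours at 28 °C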
Test Parameters: Leishmania major promastigotes, resazurin fluorescence viability; at 10 µM; stronger effect = higher value
Out of some 200,000 compounds screened, about 18,000 (9%) were called active. Shown is part of a subset that was picked to be rich in actives.

Please review the entries below; each comes with its answer.
# Compound, inhibition
data = [
    ("C=CCNc1nc(Nc2ccc(Cl)cc2)nc(OC)n1", "41.2% (inactive)"),
    ("COc1ccc(/C=N/Nc2nc3ccccc3c(=O)[nH]2)cc1", "36.7% (inactive)"),
    ("O=C(O)CCC(=O)Nc1nc2ccc([N+](=O)[O-])cc2s1", "-7.18% (inactive)"),
    ("Cc1cc(C2=NNC(=Nc3ccc(S(=O)(=O)N4CCOCC4)cc3)SC2)c(C)n1CC1CCCO1 (configuration not stated)", "-7.5% (inactive)"),
    ("Cc1cc(C(=O)NNC(=O)c2cccc(S(=O)(=O)N3CCOCC3)c2)c2ccccc2n1", "-9.98% (inactive)"),
    ("Nc1nc2n(n1)C(c1ccco1)CC(c1ccc(Cl)c(Cl)c1)N2 (configuration not stated)", "-1.56% (inactive)"),
    ("CCOc1ccc(/C=C(/NC(=O)c2ccccc2)C(=O)NCCC(=O)O)cc1", "-5.96% (inactive)"),
    ("CCOC(=O)C1=C(C)NC(=O)NC1c1ccccc1 (configuration not stated)", "-1.3% (inactive)"),
    ("O=C(Nc1ccncc1)c1cc(-c2ccccn2)nc2ccc(Br)cc12", "2.98% (inactive)"),
    ("O=[N+]([O-])c1cc(S(=O)(=O)CCCN2CCOCC2)ccc1F", "1.38% (inactive)"),
]

[Q] // inhibition lookup, key: Cc1ccc(S(=O)(=O)C(C#N)c2nc3ccccc3nc2N2CCCC2)cc1C (configuration not stated)
[A] -2.26% (inactive)

[Q] Consider the compound shown here: Cc1ccc(N=C2NC(=O)c3cccc([N+](=O)[O-])c32)cc1 What is its recorded inhibition?
[A] -1.43% (inactive)

[Q] # inhibition lookup, item Cc1ccc(C2CC(c3cccc(C)c3)n3nc(N)nc3N2)cc1 (configuration not stated)
[A] 67.6% (active)

[Q] For the compound COc1ccc(NC(=O)c2sc(N)nc2-c2ccccc2)cc1 , what inhibition is on record?
[A] 2.6% (inactive)

[Q] Reported inhibition, compound CCCn1c(=S)[nH]c2ccc(C(F)(F)F)cc21 : ____
[A] -2.71% (inactive)

[Q] Please give the measured inhibition for this compound: COc1ccc(Cc2nnc(N/N=C/c3ccccc3O)[nH]c2=O)cc1OC
[A] 97.4% (active)

[Q] I have this compound here, CC(C)(C)NC(=O)Cn1cnc2cc([N+](=O)[O-])ccc2c1=O , and I need its recorded inhibition.
[A] 3.94% (inactive)

[Q] Entry CC/C(O)=C1\C(=O)CC(C)(C)CC1=NCCc1nc2ccccc2[nH]1 : reported inhibition = ?
[A] 2.52% (inactive)

[Q] Value lookup for inhibition; key = O=C(c1cccc(S(=O)(=O)Nc2ccccc2Cl)c1)N1CCN(C(=O)c2ccco2)CC1
[A] -0.85% (inactive)

[Q] Data request, read-out inhibition, for CSc1ccc(/C=N\NC(=O)CC(=O)NC(C)C)cc1
[A] 3.48% (inactive)

[Q] May I ask what inhibition has been recorded for Cc1cccc(NC(=O)c2cc([N+](=O)[O-])ccc2N2CCN(C)CC2)c1 ?
[A] -0.64% (inactive)

[Q] Please report the recorded inhibition for O=C(NC(Nc1nc2ccc([N+](=O)[O-])cc2s1)(C(F)(F)F)C(F)(F)F)c1ccccc1 .
[A] 100% (active)

Data credit: PubChem BioAssay AID1063
